Reference for the values: patent US20190322750A1

# Measured Target: T1, PD-L1-hFc (human, UniProt Q9NZQ7 19-238)
# T1 construct: extracellular domain; Made in HEK-293F cells, protein A purified; also called PD-L1 antigen; PD-L1 protein
# T1 sequence (Q9NZQ7 other isoform, or with tags, fused parts or gaps limits assumed): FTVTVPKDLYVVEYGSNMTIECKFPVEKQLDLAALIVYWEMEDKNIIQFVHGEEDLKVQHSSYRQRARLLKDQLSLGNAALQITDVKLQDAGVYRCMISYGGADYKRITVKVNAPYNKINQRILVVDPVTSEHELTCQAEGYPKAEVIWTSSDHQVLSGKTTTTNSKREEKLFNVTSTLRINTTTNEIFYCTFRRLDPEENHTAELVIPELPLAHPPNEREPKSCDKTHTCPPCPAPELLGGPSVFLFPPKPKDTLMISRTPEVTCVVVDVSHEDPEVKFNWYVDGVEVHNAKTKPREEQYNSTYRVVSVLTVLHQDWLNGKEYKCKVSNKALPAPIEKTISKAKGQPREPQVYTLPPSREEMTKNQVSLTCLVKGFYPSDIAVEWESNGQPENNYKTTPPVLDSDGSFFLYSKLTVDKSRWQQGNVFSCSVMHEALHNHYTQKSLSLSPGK
# Protocol Notes: kinetics on PD-L1-hFc (legend paragraph 40; text names ProteOn XPR36, the sheet's sensorgrams have a nm axis)
Measurement Name: pKd
pKd (log units): -log10 of the concentration in mol/L.

May I ask what pKd has been recorded for PDL1-16E12 (antibody, V domains shown, Only FR/CDR pieces are tied to the clone; also called parent antibody) VH: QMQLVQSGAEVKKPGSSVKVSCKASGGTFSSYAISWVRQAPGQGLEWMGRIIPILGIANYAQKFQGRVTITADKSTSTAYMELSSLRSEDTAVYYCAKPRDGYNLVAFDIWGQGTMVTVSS VL: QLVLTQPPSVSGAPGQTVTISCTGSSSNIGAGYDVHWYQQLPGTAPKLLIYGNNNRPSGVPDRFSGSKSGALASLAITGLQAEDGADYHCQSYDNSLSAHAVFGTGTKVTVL ?
10.37

Query binder follows.
Item PD-L1-16E12 (WT/kappa) (antibody, V domains shown, also called PD-L1-16E12-Kappa) VH: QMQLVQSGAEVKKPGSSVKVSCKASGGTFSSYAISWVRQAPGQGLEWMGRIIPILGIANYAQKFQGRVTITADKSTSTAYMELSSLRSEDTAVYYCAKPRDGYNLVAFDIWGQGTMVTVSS VL: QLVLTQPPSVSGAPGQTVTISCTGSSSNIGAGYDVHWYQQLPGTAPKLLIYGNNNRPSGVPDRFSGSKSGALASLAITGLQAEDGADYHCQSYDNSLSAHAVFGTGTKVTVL has what recorded pKd?
10.83
